Every entry's value here was drawn from PubChem BioAssay.

# experiment summary: VP16 transactivation inhibitors, counter-screen for SRC1 inhibitor project, cell-based, luminescence, high throughput (AID 588824)
# condition info: cell-based VP16 transactivation luciferase luminescence; at 3.6 µM
Activity calls are given as the source filed them. Rule as the data show it: active = inhibition above about 25%; inactive = the rest.
Classes to choose from: T (active), F (inactive)

Worked set:
Inquiry: Tell me the recorded outcome of this test for CC(=O)OC[C@]12CC[C@H]3[C@@](C)(CC[C@H]4C(C)(C)CCC[C@]34C)[C@@H]1CC(C1=CC(=O)OC1O)O2 (some centres not stated) .
Reply text: T

Inquiry: Tell me the recorded outcome of this test for CC(=O)Nc1ccc(SCC(=O)c2cc(C)n(-c3ccccc3F)c2C)cc1 .
Reply text: F

Inquiry: Tell me the recorded outcome of this test for O=C(NCc1ccncc1)C1CCCN(S(=O)(=O)c2ccc(Br)cc2)C1 (configuration not stated) .
Reply text: F

Inquiry: Tell me the recorded outcome of this test for NC1=C(Cl)C(=O)c2ccc(S(N)(=O)=O)cc2C1=O .
Reply text: T

Then there is this molecule:
Inquiry: Tell me the recorded outcome of this test for O=C(Nc1ccc(S(=O)(=O)N2CCCC2)cc1)c1ccc(CN2CCc3ccccc3C2)cc1 .
Reply text: T

====

Known inhibition of a selection of compounds
# test target: Nuclear receptor coactivator 3 (Homo sapiens) (UniProt Q9Y6Q9)
# Sequence (Q9Y6Q9 whole entry, looked up): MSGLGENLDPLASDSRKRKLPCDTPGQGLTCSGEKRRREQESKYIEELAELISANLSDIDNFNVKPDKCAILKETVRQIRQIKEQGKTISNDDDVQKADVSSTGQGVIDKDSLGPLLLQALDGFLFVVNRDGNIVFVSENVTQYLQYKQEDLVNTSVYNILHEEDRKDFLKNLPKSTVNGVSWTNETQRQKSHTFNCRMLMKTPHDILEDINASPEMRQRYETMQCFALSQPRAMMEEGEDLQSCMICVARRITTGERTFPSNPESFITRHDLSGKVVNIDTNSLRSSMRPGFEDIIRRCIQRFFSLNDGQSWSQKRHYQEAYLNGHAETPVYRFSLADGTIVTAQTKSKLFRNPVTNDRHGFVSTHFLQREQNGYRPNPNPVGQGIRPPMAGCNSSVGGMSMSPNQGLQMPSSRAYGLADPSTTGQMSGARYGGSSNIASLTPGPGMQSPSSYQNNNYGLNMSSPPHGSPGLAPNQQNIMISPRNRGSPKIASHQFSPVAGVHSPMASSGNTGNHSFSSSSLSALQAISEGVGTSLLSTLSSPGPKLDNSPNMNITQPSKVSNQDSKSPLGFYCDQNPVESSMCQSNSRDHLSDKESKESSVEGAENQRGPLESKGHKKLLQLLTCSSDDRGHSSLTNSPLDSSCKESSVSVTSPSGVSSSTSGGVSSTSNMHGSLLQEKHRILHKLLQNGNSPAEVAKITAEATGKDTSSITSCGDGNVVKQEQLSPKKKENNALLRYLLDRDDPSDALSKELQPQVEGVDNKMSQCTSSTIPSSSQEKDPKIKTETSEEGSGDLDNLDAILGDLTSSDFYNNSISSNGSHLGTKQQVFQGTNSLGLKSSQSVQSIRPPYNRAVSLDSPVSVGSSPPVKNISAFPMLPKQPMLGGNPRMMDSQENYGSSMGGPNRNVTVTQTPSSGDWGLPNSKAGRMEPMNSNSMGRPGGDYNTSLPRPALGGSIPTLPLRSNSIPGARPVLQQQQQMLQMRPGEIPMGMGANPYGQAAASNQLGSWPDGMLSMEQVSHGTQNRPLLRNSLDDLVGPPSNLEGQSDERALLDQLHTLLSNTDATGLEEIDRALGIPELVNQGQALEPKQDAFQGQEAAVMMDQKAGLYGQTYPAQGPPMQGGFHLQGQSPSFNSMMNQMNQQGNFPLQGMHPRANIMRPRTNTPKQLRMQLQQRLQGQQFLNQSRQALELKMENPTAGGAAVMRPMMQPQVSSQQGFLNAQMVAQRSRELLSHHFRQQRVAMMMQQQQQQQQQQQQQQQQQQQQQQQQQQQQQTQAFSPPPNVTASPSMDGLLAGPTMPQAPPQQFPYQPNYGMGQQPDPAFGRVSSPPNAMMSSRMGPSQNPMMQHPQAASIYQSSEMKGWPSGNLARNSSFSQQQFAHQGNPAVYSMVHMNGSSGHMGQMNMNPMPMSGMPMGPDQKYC
# experiment summary: SRC3 coactivator transcriptional activity inhibitors, confirmation, cell-based, luminescence, quadruplicate (AID 588792);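 also: 0% = DMSO treated cells and 100% = gossypol at 36 µM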
# condition info: HEK293 GAL4-SRC3 luciferase reporter, at 3.6 µM, active compounds read high
Report the value in % with no unit label.

Inquiry: Give the value of inhibition reported for the following: NC(=O)c1sc2nc3c(c(-c4ccco4)c2c1N)CCC3
Reply text: 53.9

Inquiry: Give the value of inhibition reported for the following: Cc1cc(/C=N/Nc2ncnc(N)c2[N+](=O)[O-])c(C)n1-c1ccccc1
Reply text: 26

Inquiry: Give the value of inhibition reported for the following: CCc1ccc(NC(=O)c2cnc(N3CCN(c4ccccn4)CC3)c3ccccc23)cc1
Reply text: 18.1

Inquiry: Give the value of inhibition reported for the following: COC1C(CO)OC(n2c3c(Cl)cccc3c3c4c(c5c6cccc(Cl)c6[nH]c5c32)C(=O)NC4=O)C(O)C1O (stereo not given)
Reply text: 68.3

Inquiry: Give the value of inhibition reported for the following: C#CCN(C[C@@H]1[C@@H](OC(=O)NCc2ccccc2F)[C@@H](OC(=O)NCc2ccccc2F)Cn2c(=O)ccc(=O)n21)S(=O)(=O)c1ccc(C)cc1
Reply text: -2.92

Further cases:
Inquiry: Give the value of inhibition reported for the following: Cc1nc2cc(NCc3nc4ccccc4n3Cc3ccccc3)ccc2n1C
Reply text: -99.3

Inquiry: Give the value of inhibition reported for the following: O=C(CCN1CCOCC1)N/N=C/c1cc(Br)cc(Br)c1O
Reply text: 13.6

Inquiry: Give the value of inhibition reported for the following: CCOC(=O)CC/C(C)=N\N=C1\SC(CC(=O)O)C(=O)N1c1ccccc1 (stereo not given)
Reply text: 0.21

Inquiry: Give the value of inhibition reported for the following: O=C(Cc1ccc(Cl)cc1)c1c[nH]c(C(=O)NCc2cccnc2)c1
Reply text: 95.9

Inquiry: Give the value of inhibition reported for the following: COc1ccc2nc(NC(=O)C3CCN(S(=O)(=O)c4cccs4)CC3)sc2c1
Reply text: 20.3

Inquiry: Give the value of inhibition reported for the following: CC(C)CCCCCCCCCCCCC(=O)NCC(=O)NC1C(O)C(O)C(Nc2ncnc3nc[nH]c23)OC1C(O)CO (stereo not given)
Reply text: 96.9

Inquiry: Give the value of inhibition reported for the following: CCC[N+]1(CC#CCC(c2ccccc2)c2ccccc2)CCCCC1
Reply text: 28.8

Inquiry: Give the value of inhibition reported for the following: Cc1ccc(NCCN(C)C)c2c(=O)c3cc(O)ccc3sc12
Reply text: 40.4

Inquiry: Give the value of inhibition reported for the following: CCOC(=O)c1c(C)sc2c1N(C(=O)CCl)c1cc(Cl)ccc1S2
Reply text: -14.3

Inquiry: Give the value of inhibition reported for the following: Nc1ccc(Oc2ccccc2-c2ccccc2)cc1
Reply text: 42.6

Inquiry: Give the value of inhibition reported for the following: COc1ccc(S(=O)(=O)NCc2ccncc2)cc1NC(=O)c1ccc(Cl)cc1
Reply text: 14.2

Inquiry: Give the value of inhibition reported for the following: CCCCCCSc1ccc([C@H]2N[C@@](CC(C)C)(C(=O)OC)[C@H]3C(=O)N(C)C(=O)[C@@H]23)cc1OC
Reply text: 4.49

====

# test target: Nuclear receptor coactivator 1 (Homo sapiens) (UniProt Q15788)
# Sequence (Q15788 whole entry, looked up): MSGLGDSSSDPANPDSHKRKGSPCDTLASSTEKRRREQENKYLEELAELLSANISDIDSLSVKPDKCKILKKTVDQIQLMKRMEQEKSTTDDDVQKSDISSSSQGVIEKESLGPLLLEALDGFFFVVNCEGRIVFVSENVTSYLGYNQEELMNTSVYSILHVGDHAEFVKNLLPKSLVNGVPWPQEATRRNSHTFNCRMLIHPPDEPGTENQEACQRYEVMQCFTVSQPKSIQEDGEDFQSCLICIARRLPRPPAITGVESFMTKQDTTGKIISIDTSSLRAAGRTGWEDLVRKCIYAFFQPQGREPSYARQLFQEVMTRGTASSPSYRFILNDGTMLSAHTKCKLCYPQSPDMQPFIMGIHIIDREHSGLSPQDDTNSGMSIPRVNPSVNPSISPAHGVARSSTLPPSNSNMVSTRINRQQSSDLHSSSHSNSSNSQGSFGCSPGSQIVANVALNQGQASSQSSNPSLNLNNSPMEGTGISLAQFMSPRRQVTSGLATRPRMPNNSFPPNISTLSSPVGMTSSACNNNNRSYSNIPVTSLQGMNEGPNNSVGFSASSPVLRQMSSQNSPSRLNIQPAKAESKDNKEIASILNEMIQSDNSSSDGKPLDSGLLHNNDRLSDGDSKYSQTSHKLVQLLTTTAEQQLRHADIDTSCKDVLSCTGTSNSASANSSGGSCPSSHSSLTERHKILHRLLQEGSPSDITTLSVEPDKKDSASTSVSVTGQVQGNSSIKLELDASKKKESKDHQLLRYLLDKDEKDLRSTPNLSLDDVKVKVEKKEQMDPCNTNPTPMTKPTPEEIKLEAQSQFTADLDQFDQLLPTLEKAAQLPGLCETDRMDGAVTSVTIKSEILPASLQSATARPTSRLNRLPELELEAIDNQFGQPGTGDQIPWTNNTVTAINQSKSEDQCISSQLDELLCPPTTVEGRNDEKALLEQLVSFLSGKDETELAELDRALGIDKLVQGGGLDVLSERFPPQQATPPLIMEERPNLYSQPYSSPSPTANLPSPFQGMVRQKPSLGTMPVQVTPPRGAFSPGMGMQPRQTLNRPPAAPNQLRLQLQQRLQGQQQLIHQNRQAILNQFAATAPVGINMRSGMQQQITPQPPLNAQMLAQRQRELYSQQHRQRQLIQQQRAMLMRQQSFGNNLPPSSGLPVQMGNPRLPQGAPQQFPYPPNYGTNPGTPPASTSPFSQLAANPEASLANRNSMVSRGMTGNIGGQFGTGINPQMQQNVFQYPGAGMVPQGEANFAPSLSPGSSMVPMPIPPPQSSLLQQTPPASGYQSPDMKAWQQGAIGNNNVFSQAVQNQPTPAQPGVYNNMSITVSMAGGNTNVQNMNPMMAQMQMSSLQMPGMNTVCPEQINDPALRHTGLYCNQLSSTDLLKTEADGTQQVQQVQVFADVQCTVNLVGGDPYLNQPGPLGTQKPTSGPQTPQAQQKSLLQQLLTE
# experiment summary: SRC1 coactivator transcriptional activity inhibitors, confirmation, cell-based, luminescence, quadruplicate (AID 588820);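 also: 0% = DMSO wells and 100% = gossypol 36 µM treated wells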
# condition info: HEK293 GAL4-SRC1 luciferase reporter, at 3.6 µM
The source made the active and inactive calls.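 Rule for the calls: active = mean inhibition above 46.68%, the untreated control wells mean plus 3 SD; inactive = the rest.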
Classes to choose from: active, inactive

Worked set:
Inquiry: Tell me the recorded outcome of this test for Cc1cc(C)c(CN2CCN(C(=O)Cn3cnc4c(NCc5ccccc5)ncnc43)CC2)c(C)c1 .
Reply text: inactive

Inquiry: Tell me the recorded outcome of this test for COc1ccc2cc3cc(C(=O)NCc4cccs4)oc3nc2c1 .
Reply text: inactive

Inquiry: Tell me the recorded outcome of this test for COc1ccc(-n2cc(-c3ccc(C)cc3)[n+]3c2SCC3)cc1 .
Reply text: inactive

Inquiry: Tell me the recorded outcome of this test for Cc1cccc(-n2ncc3c2CCCC3NC(=O)CCN2CCCCO2)c1C (configuration not stated) .
Reply text: inactive

Inquiry: Tell me the recorded outcome of this test for Cc1ccc(S(=O)(=O)NCc2ccc3c(c2)OCO3)cc1C .
Reply text: inactive

Inquiry: Tell me the recorded outcome of this test for O=C(Nc1ccc(S(=O)(=O)N2CCCCC2)cc1)c1ccc(CN2CCOCC2)cc1 .
Reply text: inactive

Further cases:
Inquiry: Tell me the recorded outcome of this test for COc1cc(OC)c2nc(C)c3c(c2c1)N(c1ccc(O)cc1)CC3 .
Reply text: inactive

Inquiry: Tell me the recorded outcome of this test for CCN1/C(=C/c2ccc3cc(C)ccc3[n+]2CC)Sc2ccccc21 .
Reply text: inactive

Inquiry: Tell me the recorded outcome of this test for O=C1[C@@H]2Cc3c([nH]c4ccccc34)C(c3ccc([N+](=O)[O-])cc3)N2C(=O)CN1C1CC1 (some centres not stated) .
Reply text: active

Inquiry: Tell me the recorded outcome of this test for NS(=O)(=O)c1ccc(N=Nc2c(O)[nH]c3ccc(Br)cc23)cc1 .
Reply text: inactive

Inquiry: Tell me the recorded outcome of this test for CCN1/C(=C/c2sc(-c3ccccc3C)c[n+]2C)Sc2ccccc21 .
Reply text: active

Inquiry: Tell me the recorded outcome of this test for Cc1cc(C)c(OCCN2CCCC2)c(Cl)c1 .
Reply text: inactive

Inquiry: Tell me the recorded outcome of this test for O=C(CCn1cnc(-c2ccccc2)c1-c1ccccc1)N/N=C/c1ccccc1O .
Reply text: inactive

Inquiry: Tell me the recorded outcome of this test for O=C(CC1CS(=O)(=O)CC1CC(=O)Nc1ccc2c(c1)OCCO2)Nc1ccc2c(c1)OCCO2 (configuration not stated) .
Reply text: inactive

Inquiry: Tell me the recorded outcome of this test for Nc1nc(=O)n(C2CC(O)C(CO)O2)cc1F (configuration not stated) .
Reply text: active

Inquiry: Tell me the recorded outcome of this test for CC(NC(=O)Nc1nnc(C(F)(F)F)s1)(C(F)(F)F)C(F)(F)F .
Reply text: inactive

Inquiry: Tell me the recorded outcome of this test for CN=C(C)/C(C(=O)OC)=C(/O)c1c(F)cccc1F .
Reply text: inactive

Inquiry: Tell me the recorded outcome of this test for Cc1cccc(C(=O)Nc2sc3c(c2C(=O)O)CCCC3)c1 .
Reply text: inactive

Inquiry: Tell me the recorded outcome of this test for O=C1c2cccc3cc([N+](=O)[O-])cc(c23)C(=O)N1CCN1CCCC1 .
Reply text: inactive

====

# test target: Steroidogenic factor 1 (Homo sapiens)
# experiment summary: SF1 (NR5A1) inverse agonists, counter-screen for LRH-1 inverse agonist project, cell-based, luminescence, high throughput (AID 651614);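 also: cells cotransfected with StAR promoter reporter and SF1 expression vector; 0% = vehicle on cells with receptor and 100% = vehicle on cells lacking receptor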
# condition info: cell-based SF1 luciferase reporter, at 3.6 µM, active compounds read high
Classify by measured inhibition: 1 (yes) if it is equal to or exceeds 70%, 0 (no) if it is smaller.

Inquiry: Reported inhibition at or above 70%? CCOCC(=O)Nc1cccc(C(=O)OCC)c1
Reply text: 0 (no)

====

Known activation of a selection of compounds
# Tested on: Nuclear hormone receptor DAF-12 (Haemonchus contortus)
# experiment summary: H. contortus DAF-12 receptor agonists, confirmation, cell-based, luminescence, HEK293, lit1-tk-luc, triplicate (AID 743032);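 also: 0% = DMSO only wells and 100% = 3 µM Δ7-dafachronic acid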
# condition info: HEK293 hcDAF-12 lit1-tk-luc reporter, at 6.8 µM, active compounds read high, % of Δ7-dafachronic acid response
Some of the results follow.
Report the value in % with no unit label.

The examples below pair each entry with its known result.
Inquiry: Give activation only, for Cc1ccnc(NC(=O)c2ccoc2C)c1 , using Nuclear hormone receptor DAF-12 (Haemonchus contortus) data.
Reply text: 3.77

Inquiry: Give activation only, for NC(=O)c1c(NC(=O)c2ccccc2)sc2c1CCCC2 , using Nuclear hormone receptor DAF-12 (Haemonchus contortus) data.
Reply text: 13.6

Inquiry: Give activation only, for Cc1cc(N=Nc2ccc3ccccc3c2)ccc1O , using Nuclear hormone receptor DAF-12 (Haemonchus contortus) data.
Reply text: 8.43

Inquiry: Give activation only, for O=C(c1cnn(-c2ccc(Cl)cc2)c1)c1ccccc1O , using Nuclear hormone receptor DAF-12 (Haemonchus contortus) data.
Reply text: 7.41

Inquiry: Give activation only, for COc1ccc(Nc2nc(-c3ccccc3)cs2)cc1 , using Nuclear hormone receptor DAF-12 (Haemonchus contortus) data.
Reply text: 18.8

Inquiry: Give activation only, for c1cnc(N2CCN(c3ccc4ccccc4n3)CC2)nc1 , using Nuclear hormone receptor DAF-12 (Haemonchus contortus) data.
Reply text: 5.39

Inquiry: Give activation only, for Cc1ccccc1Nc1nnc(SCC(=O)c2cc3ccccc3o2)s1 , using Nuclear hormone receptor DAF-12 (Haemonchus contortus) data.
Reply text: 1.9

Inquiry: Give activation only, for OC(COc1ccc2ccccc2c1)CN1CCOCC1 (stereo unspecified) , using Nuclear hormone receptor DAF-12 (Haemonchus contortus) data.
Reply text: 8.99

Further cases:
Inquiry: Give activation only, for CCc1ccc(NC(=O)N2CCc3ccccc3C2)cc1 , using Nuclear hormone receptor DAF-12 (Haemonchus contortus) data.
Reply text: 7.24

Inquiry: Give activation only, for COc1ccc(C(=O)C[n+]2ccc(C)cc2)cc1 , using Nuclear hormone receptor DAF-12 (Haemonchus contortus) data.
Reply text: 0.77

Inquiry: Give activation only, for Cc1ccnc(NC(=O)CCNS(=O)(=O)c2ccc(C)c(C)c2)c1 , using Nuclear hormone receptor DAF-12 (Haemonchus contortus) data.
Reply text: 5.73
